Values from patent US8518946B2

method-description: Pharmacokinetics assay in rats (LC/MS/MS plasma concentration)
Assay type: in vivo, SD rats
settings: both sexes, SD, rat, plasma, po, 3 mg/kg, intragastric 3.0 mg/kg, read-out: Vz/F
Could you please report measured Vd/F for the items listed next?
Your answer should be a number followed by the unit of measure.

# structure-smiles-string, Vd/F
records = [
    ("N[C@@H](CC(=O)N1CCn2c(C(F)(F)F)nc(C(=O)O)c2C1)Cc1cc(F)c(F)cc1F.O=C(O)C[C@H](O)C(=O)O", "140 L/kg"),
    ("N[C@@H](CC(=O)N1CCn2c(C(F)(F)F)nc(C(=O)[O-])c2C1)Cc1cc(F)c(F)cc1F.[Na+]", "164 L/kg"),
    ("N[C@@H](CC(=O)N1CCn2c(C(F)(F)F)nc(C(=O)O)c2C1)Cc1cc(F)c(F)cc1F.O=C(O)C(O)C(O)C(=O)O", "154 L/kg"),
]

Could you now look at the following molecule, please?
The reported value for Cl.N[C@@H](CC(=O)N1CCn2c(C(F)(F)F)nc(C(=O)O)c2C1)Cc1cc(F)c(F)cc1F in terms of Vd/F is 114 L/kg

====

method-description: Solubility experiment in four systems
Assay type: physicochemical
settings: phosphate buffer solution (PBS), pH 7.4, aqueous buffer, PBS pH 7.4; read-out: Solubility Value, PBS (pH 7.4)
Give measured solubility for each item. Keep answers brief.
Numbers only, in mg/mL.

# annotated cases, reported solubility shown
# structure-smiles-string, recorded-value
data = [
    ("N[C@@H](CC(=O)N1CCn2c(C(F)(F)F)nc(C(=O)[O-])c2C1)Cc1cc(F)c(F)cc1F.[Li+]", 60.5),
    ("N[C@@H](CC(=O)N1CCn2c(C(F)(F)F)nc(C(=O)O)c2C1)Cc1cc(F)c(F)cc1F.O=C(O)C(O)C(O)C(=O)O", 12.3),
    ("Cl.N[C@@H](CC(=O)N1CCn2c(C(F)(F)F)nc(C(=O)O)c2C1)Cc1cc(F)c(F)cc1F", 18.6),
    ("N[C@@H](CC(=O)N1CCn2c(C(F)(F)F)nc(C(=O)O)c2C1)Cc1cc(F)c(F)cc1F.O=C(O)C[C@H](O)C(=O)O", 19.5),
]

So for N[C@@H](CC(=O)N1CCn2c(C(F)(F)F)nc(C(=O)[O-])c2C1)Cc1cc(F)c(F)cc1F.[Na+] , the logged solubility turned out to be 57.4

====

target-or-system: DPP-IV (Homo sapiens, UniProt P27487)
Sequence (P27487 whole entry): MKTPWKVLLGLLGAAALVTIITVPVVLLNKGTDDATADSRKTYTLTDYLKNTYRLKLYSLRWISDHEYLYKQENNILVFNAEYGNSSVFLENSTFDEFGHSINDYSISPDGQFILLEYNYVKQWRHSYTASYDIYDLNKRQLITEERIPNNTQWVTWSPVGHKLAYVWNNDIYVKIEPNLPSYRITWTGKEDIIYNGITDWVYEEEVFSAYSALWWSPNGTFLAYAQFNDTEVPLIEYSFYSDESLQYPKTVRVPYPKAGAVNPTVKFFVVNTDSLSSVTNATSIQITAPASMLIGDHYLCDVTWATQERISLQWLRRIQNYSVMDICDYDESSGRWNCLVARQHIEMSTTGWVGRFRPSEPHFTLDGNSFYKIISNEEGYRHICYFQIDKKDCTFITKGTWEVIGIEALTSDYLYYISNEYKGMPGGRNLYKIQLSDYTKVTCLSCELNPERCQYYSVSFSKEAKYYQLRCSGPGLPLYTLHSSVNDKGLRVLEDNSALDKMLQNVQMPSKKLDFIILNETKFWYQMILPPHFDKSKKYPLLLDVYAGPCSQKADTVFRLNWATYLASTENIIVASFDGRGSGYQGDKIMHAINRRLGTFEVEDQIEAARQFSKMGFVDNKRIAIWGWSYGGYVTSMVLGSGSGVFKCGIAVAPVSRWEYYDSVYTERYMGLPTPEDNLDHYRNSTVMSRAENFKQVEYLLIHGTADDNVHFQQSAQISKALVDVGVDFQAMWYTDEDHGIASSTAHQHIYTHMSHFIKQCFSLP
Provide the reported pIC50 of each item.
Numbers only, as −log10 of the molar value.

Past entries and their recorded results:
# molecule, recorded-value
rows = [
    ("N[C@@H](CC(=O)N1CCn2c(C(F)(F)F)nc(C(=O)[O-])c2C1)Cc1cc(F)c(F)cc1F.[Li+] [Example 5]", 7.60),
    ("N[C@@H](CC(=O)N1CCn2c(C(F)(F)F)nc(C(=O)O)c2C1)Cc1cc(F)c(F)cc1F [Example 2, phosphate]", 7.82),
    ("N[C@@H](CC(=O)N1CCn2c(C(F)(F)F)nc(C(=O)O)c2C1)Cc1cc(F)c(F)cc1F.O=C(O)C(O)C(O)C(=O)O [Example 12]", 7.92),
]

Query molecule follows.
Entry N[C@@H](CC(=O)N1CCn2c(C(F)(F)F)nc(C(=O)O)c2C1)Cc1cc(F)c(F)cc1F [Example 9] , DPP-IV (Homo sapiens, UniProt P27487) data, pIC50 value: 7.92
